System: MS2 coat protein
Experiment: apparent KD of MS2 coat protein; designed switch direction (-1 OFF switch, 1 ON switch): -1; higher = weaker reporter binding
Settings: Eterna round: R95; input ligand: microRNA oligo, concentration not stated
Items are presented alongside their recorded apparent KD of MS2 coat protein.
Property Label: apparent KD of MS2 coat protein (nM)

[[record]]
sequence_chain = "CUGAGCUGAGGAUAUACAUGAGGAUCACCCAUGUGAAGUAGCUUGCGUACAGGCAGAUGUAGAAGGCAGUUCGG [JL-ex3-3.31 Brourd mod] (puzzle: Exclusion 3)"
property_label = "apparent KD of MS2 coat protein"
observed_result = 34.6

[[record]]
sequence_chain = "AAUCCACAUGAGGAUCACCCAUGUCAGGAUAUCGCGCGCGCGUUUUCGGUCUUUCGCGCGAGAAGGGACGGCUG (puzzle: Exclusion 1)"
property_label = "apparent KD of MS2 coat protein"
observed_result = 16.3

[[record]]
sequence_chain = "GAUCCACAUGAGGAUCACCCAUGUGAGGAUAUGUCCAUAUUCGGCAAAUCGGAUAUGGACAGAAGGCACACCGG [JR_Exclusion1_Sub012] (puzzle: Exclusion 1)"
property_label = "apparent KD of MS2 coat protein"
observed_result = 104

[[record]]
sequence_chain = "UCGGCGCGAGGAUAUACGUUUGCGCGUUUUCGUUUUUGCGUACAUGAGGAUCACCCAUGUAGAAGGCGCGCCGC [Apr-15 SS2-16] (puzzle: Exclusion 2)"
property_label = "apparent KD of MS2 coat protein"
observed_result = 11.4

[[record]]
sequence_chain = "GAUAGAGAGCAGGAUAUCUUGGGUAAGUGUUGUAGAGAAGGGCUCACAUGAGGAUCACCCAUGUGGUCCAAGAU [JL Dibiri mod 07] (puzzle: Exclusion 6)"
property_label = "apparent KD of MS2 coat protein"
observed_result = 16.9

[[record]]
sequence_chain = "ACACAAGCCCUUUGCUCGUUUUAAUACAGCGGGCUCUUCACAUGAGGAUCACCCAUGUAGGCCUUGUUCCAAGGCCG [Rebileve] (puzzle: Sensor v3, turn-off variant 2)"
property_label = "apparent KD of MS2 coat protein"
observed_result = 23.6

[[record]]
sequence_chain = "CUCUUGUCAGGAUAUCUAAGCUGCCUCCCGGUAGCCGAAUUAGAGAAGGGACAUGAGGAUCACCCAUGUAAAAG [Qubile] (puzzle: Exclusion 4)"
property_label = "apparent KD of MS2 coat protein"
observed_result = 160

[[record]]
sequence_chain = "GAUCUGACAGGAUAUACAUGAGGAUCACCCAUGUGCGUGCUAGCGAAAGCUAGCGCAGGUAGAAGGGUCAGAUC [Ex3 dot plot directed v4] (puzzle: Exclusion 3)"
property_label = "apparent KD of MS2 coat protein"
observed_result = 11.3

[[record]]
sequence_chain = "AGUACUUACACGAAAGUGUUAGUACAAUAAGCUUGUGAAACAUGAGGAUCACCCAUGUCCUCAUAAGCUCGUCUUAU [salish99_TOv2_r3_016] (puzzle: Sensor v3, turn-off variant 2)"
property_label = "apparent KD of MS2 coat protein"
observed_result = 615

[[record]]
sequence_chain = "GAGGAGCAAGGAUAUACGAGGAUAUGGUAGUUUGUAGAGUGACAUGAGGAUCACCCAUGUAGAAGGUGCGAGGG [JR_Exclu2_Sub099] (puzzle: Exclusion 2)"
property_label = "apparent KD of MS2 coat protein"
observed_result = 41.7

[[record]]
sequence_chain = "AAGAAACAUGAGGAUCACCCAUGUGAGGAUAUGUAAAAUAAAAGAAAAUAAAGAAGAAACAGAAGGCACAAAGG [Mat - Mod of Hog D22] (puzzle: Exclusion 1)"
property_label = "apparent KD of MS2 coat protein"
observed_result = 36.1

[[record]]
sequence_chain = "GAGAAACAUGAGGAUCACCCAUGUGAGGAUAUGCGUACGUUGUCCGUAGGCGACGUGCGCAGAAGGCGCAAAGG [Mat - Mod of JL D86] (puzzle: Exclusion 1)"
property_label = "apparent KD of MS2 coat protein"
observed_result = 54.2

[[record]]
sequence_chain = "CCUCCACAUGAGGAUCACCCAUGUCAGGAUAUCGUGUGCGCGUUUUCGGUCUUUCGCGCGAGAAGGGACGACUG (puzzle: Exclusion 1)"
property_label = "apparent KD of MS2 coat protein"
observed_result = 24.7

[[record]]
sequence_chain = "AAGUACUACAAGCUUAGGGACAUGAGGAUCACCCAUGUUCGUCUUAUUGAUCUAGGUACGCUGACGUACCUAGAUCA [Mat - Sensor v3 - turn-off var 1 - JL Mod - D10] (puzzle: Sensor v3, turn-off variant 1)"
property_label = "apparent KD of MS2 coat protein"
observed_result = 44.5

[[record]]
sequence_chain = "AUGUUUGUAGUGAGGAUAUCGUUGAGGAAGAGGAUCGAGAAGGCACAUGAGGAUCACCCAUGUAAGAUGUGGUA [JR_BMOE4_Sub081] (puzzle: Brourd's mod of Exclusion 4)"
property_label = "apparent KD of MS2 coat protein"
observed_result = 61.2

[[record]]
sequence_chain = "AGUAGAUCUACGCUUGCGUGGAUCUGCAAUGCAAGUGUAACAUGAGGAUCACCCAUGUCCUCAUUUGCUCGUCUUAU [JL turnoff v2 99.03] (puzzle: Sensor v3, turn-off variant 2)"
property_label = "apparent KD of MS2 coat protein"
observed_result = 275

[[record]]
sequence_chain = "ACCUUACAUGAGGAUCACCCAUGUCAGGAUAUCUCGGGCGGCUGAGGACCAGCCGCCCAGAGAAGGGACGAGGA [Leleusarra] (puzzle: Exclusion 1)"
property_label = "apparent KD of MS2 coat protein"
observed_result = 12.5

[[record]]
sequence_chain = "AGAAAUGCCCAUGGCCACAAGCUUUUUGCCUGUCUUACCACAUGAGGAUCACCCAUGUGACAUGGGCUCCUGAUAAU [Didilaeren] (puzzle: Sensor v3, turn-off variant 2)"
property_label = "apparent KD of MS2 coat protein"
observed_result = 305

[[record]]
sequence_chain = "AGGUGAGCCGUCAGGAUAUGCGUUCCGUAGGGUCAGCAGAAGGGACAUGAGGAUCACCCAUGUUUCGCACGUGG [Veraxedi] (puzzle: Brourd's mod of Exclusion 4)"
property_label = "apparent KD of MS2 coat protein"
observed_result = 31

[[record]]
sequence_chain = "AGUACUGACACGUUGGUGUUAGUACAAUAAGCUUGUGAUACAUGAGGAUCACCCAUGUCCUCAUAAGCUCGUCUUAU [salish99_TOv2_r2_093] (puzzle: Sensor v3, turn-off variant 2)"
property_label = "apparent KD of MS2 coat protein"
observed_result = 881

[[record]]
sequence_chain = "AUUGAUGUUGAGGAUAUGCAUAUAUUUAUACUAGCAGAAGGCGAUACAUGAGGAUCACCCAUGUUCAUGGAAGU [JR_E6_Sub093] (puzzle: Exclusion 6)"
property_label = "apparent KD of MS2 coat protein"
observed_result = 24.7


----------
Tested on: MS2 coat protein
Test: apparent KD of MS2 coat protein; designed switch direction (-1 OFF switch, 1 ON switch): 1; higher = weaker reporter binding
Conditions: input ligand: microRNA oligo, concentration not stated
Property Label: apparent KD of MS2 coat protein (nM)

[[record]]
sequence_chain = "UAAAUACAUGAGGAUCACCCAUGUCAAAAGACAUGAGGAUAUGUACAGACUUCGGUCUGUACAGAAGGCAUGAAAA [salish99_ss1_r3_095] (Eterna round: R96, puzzle: Same State 1)"
system_tested = "MS2 coat protein"
observed_result = 397

[[record]]
sequence_chain = "GGUAGGUUACUACCAGACAUGAGGAUCACCCAUGUAAAUGGGAAGGAUAUGGUACCGUUUCGGUACCAGAAGGUCCUAAAUGAG [JL SSNG3 1.47] (Eterna round: R96, puzzle: Same State NG 3)"
system_tested = "MS2 coat protein"
observed_result = 644

[[record]]
sequence_chain = "AAAAGAAACACAGGAUAUACCGCACUUAACGCGGUAGAAGGGUGGGACAUGAGGAUCACCCAUGUGGUCUGGGCGCCAGACCGC [Esratean] (Eterna round: R96, puzzle: Same State NG 1)"
system_tested = "MS2 coat protein"
observed_result = 23.3

[[record]]
sequence_chain = "AUUUGGUAACGAGGAUAUCGUUUUUGUUUUCUUCGAGAAGGCGUUAUUGUUUAUUUCUAUUGUUACAUGAGGAUCACCCAUGUU [JR_SSNG1_Sub056] (Eterna round: R96, puzzle: Same State NG 1)"
system_tested = "MS2 coat protein"
observed_result = 19

[[record]]
sequence_chain = "AUUAUUUAUGCAGGAUAUGAUUAACAUGAGGAUCACCCAUGUGGUGUUGUGAGUAAGGAGAGUGAUCAGAAGGGCAUCUUUUUU [JMF's solution 44] (Eterna round: R96, puzzle: Same State NG 2)"
system_tested = "MS2 coat protein"
observed_result = 227

[[record]]
sequence_chain = "UUGAUUAGAAAUUAACAUGAGGAUCACCCAUGUAUUGGAUCAGAGGAUAUGCAUGUUUGAUAGUAGCAGAAGGCUGAUGGUGGA [JR_SSNG3_Sub027] (Eterna round: R96, puzzle: Same State NG 3)"
system_tested = "MS2 coat protein"
observed_result = 44.2

[[record]]
sequence_chain = "GUAGCAUACCGAGGAUAUUCAUAUUAUAAACAUGAGGAUCACCCAUGUGGUCGAUUACGACCUUGGGAGAAGGCGGAAUGCUAC [Xeonanis - 20 Mod36] (Eterna round: R96, puzzle: Same State NG 2)"
system_tested = "MS2 coat protein"
observed_result = 462

[[record]]
sequence_chain = "UGGUACAUGGGAGGAUAUGGAGUGAAGACAUGAGGAUCACCCAUGUUAUAAAUGCCGAGAGGCAACUAGAAGGCCCAUGUACCU [JL SSNG1 3.94] (Eterna round: R96, puzzle: Same State NG 2)"
system_tested = "MS2 coat protein"
observed_result = 54.3

[[record]]
sequence_chain = "AGCUAUUAAUCAGGAUAUGGUCACAUGAGGAUCACCCAUGUAUAGAUGAUUGAAUGUGGUCUAAACUAGAAGGGAUUGCUAACA [SameState NG2 #57] (Eterna round: R96, puzzle: Same State NG 2)"
system_tested = "MS2 coat protein"
observed_result = 232

